Provenance of the data: patent US10975081B2

# Assayed Target: LRRK2 Ser935 phosphorylation in SH-SY5Y cells over-expressing recombinant full length LRRK2 (Homo sapiens (Human), UniProt Q5S007)
# Sequence (Q5S007 whole entry): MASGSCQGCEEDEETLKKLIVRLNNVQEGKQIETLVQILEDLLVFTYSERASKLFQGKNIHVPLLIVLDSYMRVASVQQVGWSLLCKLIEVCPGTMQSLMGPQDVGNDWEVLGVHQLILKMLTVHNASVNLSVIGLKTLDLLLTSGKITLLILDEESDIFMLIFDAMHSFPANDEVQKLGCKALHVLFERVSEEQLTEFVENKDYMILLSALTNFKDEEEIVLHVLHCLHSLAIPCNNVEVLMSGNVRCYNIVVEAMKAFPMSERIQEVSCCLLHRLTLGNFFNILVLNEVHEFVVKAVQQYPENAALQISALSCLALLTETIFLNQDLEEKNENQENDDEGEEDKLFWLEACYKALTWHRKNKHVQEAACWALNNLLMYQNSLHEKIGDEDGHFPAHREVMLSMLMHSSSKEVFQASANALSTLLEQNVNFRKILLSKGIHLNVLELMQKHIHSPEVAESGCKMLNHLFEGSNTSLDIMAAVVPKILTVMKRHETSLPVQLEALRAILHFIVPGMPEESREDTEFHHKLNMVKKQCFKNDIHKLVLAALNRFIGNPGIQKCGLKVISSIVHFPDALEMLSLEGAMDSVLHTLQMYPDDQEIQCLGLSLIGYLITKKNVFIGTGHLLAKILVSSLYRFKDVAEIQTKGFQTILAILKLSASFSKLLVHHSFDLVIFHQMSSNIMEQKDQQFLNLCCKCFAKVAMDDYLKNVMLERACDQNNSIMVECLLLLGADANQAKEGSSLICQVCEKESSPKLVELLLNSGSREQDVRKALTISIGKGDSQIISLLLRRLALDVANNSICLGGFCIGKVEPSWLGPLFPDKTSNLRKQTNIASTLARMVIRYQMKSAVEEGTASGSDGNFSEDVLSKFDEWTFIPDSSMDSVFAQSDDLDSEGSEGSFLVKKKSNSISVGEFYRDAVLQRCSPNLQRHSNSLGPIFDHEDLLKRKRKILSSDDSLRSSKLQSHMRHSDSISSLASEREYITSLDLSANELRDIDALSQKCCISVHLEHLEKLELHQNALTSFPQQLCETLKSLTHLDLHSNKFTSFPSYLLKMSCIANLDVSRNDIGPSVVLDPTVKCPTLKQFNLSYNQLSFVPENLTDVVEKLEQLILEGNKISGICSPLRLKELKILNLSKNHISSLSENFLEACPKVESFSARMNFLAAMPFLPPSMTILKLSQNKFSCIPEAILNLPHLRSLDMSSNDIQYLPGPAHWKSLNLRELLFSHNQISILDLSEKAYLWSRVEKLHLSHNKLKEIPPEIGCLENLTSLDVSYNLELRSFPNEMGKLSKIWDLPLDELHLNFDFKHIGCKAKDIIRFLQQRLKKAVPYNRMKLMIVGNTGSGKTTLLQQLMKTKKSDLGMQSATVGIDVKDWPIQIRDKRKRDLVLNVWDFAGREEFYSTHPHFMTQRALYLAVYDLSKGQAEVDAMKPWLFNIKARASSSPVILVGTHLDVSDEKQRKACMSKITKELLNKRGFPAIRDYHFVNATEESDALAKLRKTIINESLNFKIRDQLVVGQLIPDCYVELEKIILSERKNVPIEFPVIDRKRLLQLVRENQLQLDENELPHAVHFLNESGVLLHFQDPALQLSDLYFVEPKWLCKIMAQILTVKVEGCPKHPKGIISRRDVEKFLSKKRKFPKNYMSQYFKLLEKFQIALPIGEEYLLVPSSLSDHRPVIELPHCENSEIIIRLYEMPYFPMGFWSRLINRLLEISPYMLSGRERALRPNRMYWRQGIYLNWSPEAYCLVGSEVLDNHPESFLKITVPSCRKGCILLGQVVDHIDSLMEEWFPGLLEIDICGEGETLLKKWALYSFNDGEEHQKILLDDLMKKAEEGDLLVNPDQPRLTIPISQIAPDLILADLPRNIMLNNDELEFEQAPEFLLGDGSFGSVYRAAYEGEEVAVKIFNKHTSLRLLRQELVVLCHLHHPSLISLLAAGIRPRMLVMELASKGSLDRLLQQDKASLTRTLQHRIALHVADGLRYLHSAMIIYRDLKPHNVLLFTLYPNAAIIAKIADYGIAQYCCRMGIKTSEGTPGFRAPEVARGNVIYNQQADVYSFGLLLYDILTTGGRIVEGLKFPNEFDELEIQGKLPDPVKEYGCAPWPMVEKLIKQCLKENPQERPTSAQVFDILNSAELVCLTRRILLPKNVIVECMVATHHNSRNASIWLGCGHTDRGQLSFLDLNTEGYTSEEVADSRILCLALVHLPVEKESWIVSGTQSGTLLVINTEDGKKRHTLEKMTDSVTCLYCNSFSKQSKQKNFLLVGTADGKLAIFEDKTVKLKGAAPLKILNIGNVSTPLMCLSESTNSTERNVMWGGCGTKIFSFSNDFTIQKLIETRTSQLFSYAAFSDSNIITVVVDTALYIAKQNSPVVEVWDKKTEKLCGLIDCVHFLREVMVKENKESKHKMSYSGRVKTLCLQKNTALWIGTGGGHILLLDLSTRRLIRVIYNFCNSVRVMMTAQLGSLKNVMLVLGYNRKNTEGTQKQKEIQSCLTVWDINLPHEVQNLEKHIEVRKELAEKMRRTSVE
# Protocol Details: Recombinant cellular LRRK2 AlphaScreen assay
# Type: cell-based
# Condition Context: 60 minutes, read-out: Recombinant cellular LRRK2 alphaScreen assay (pIC50) (converted)
Measured Attribute: IC50

Here are 10 molecules together with their reported answers.
Molecule: Cc1nc(N2CCO[C@H](CO)C2)cc(-n2ncc3cc(Cl)c(C4CCN(C5COC5)CC4)cc32)n1
IC50: 0.0398 µM
//
Molecule: Cc1nc(N2CC(OCCO)C2)cc(-n2ncc3cc(C)c([C@H]4CCN(C)C[C@H]4F)cc32)n1 (single isomer, unassigned)
IC50: ≤ 0.1 µM
//
Molecule: COc1nc(N2CC(O)C2)cc(-n2ncc3cc(C)c(C4CN(C)CCO4)cc32)n1 (single isomer, unassigned) [Example E229]
IC50: > 10 µM
//
Molecule: Cc1cc2cnn(-c3cc(N4CCOCC4)nc(C#N)n3)c2cc1C1CCN(C)CC1(F)F (single isomer, unassigned)
IC50: > 10 µM
//
Molecule: COc1nc(N2CC(O)C2)cc(-n2ncc3cc(C)c(C4(F)CCCN(C)C4)cc32)n1 (single isomer, unassigned)
IC50: > 10 µM
//
Molecule: COc1nc(N2CCO[C@@H](CO)C2)cc(-n2ncc3cc(C)c(C4CCN(C5COC5)CC4F)cc32)n1 (single isomer, unassigned)
IC50: 0.00501 µM
//
Molecule: COc1nc(N2CC(O)C2)cc(-n2ncc3cc(C)c(C4CCN(C)CC4F)cc32)n1 (single isomer, unassigned) [Example E39]
IC50: 0.00501 µM
//
Molecule: Cc1nc(-n2ncc3cc(C)c(C4CCN(C5COC5)CC4F)cc32)cc([C@H]2C[C@@H](O)C2)n1 (single isomer, unassigned)
IC50: ≤ 0.1 µM
//
Molecule: CNC(=O)[C@H]1CN(c2cc(-n3ncc4cc(C)c(C5CCN(C)CC5(F)F)cc43)nc(OC)n2)CCO1 (single isomer, unassigned)
IC50: 0.0126 µM
//
Molecule: Cc1nc(N2CC(O)C2)cc(-n2ncc3cc(C)c(C4CCOCC4F)cc32)n1 (single isomer, unassigned)
IC50: ≤ 0.1 µM

Item: Cc1nc(N2CCOC(C(C)O)C2)cc(-n2ncc3cc(C)c(C4CCN(C5COC5)CC4)cc32)n1 (single isomer, unassigned) | IC50: ≤ 0.1 µM

Item: Cc1nc(N2CCO[C@@H](CO)C2)cc(-n2ncc3cc(C)c(C4CCCCO4)cc32)n1 (single isomer, unassigned) | IC50: > 10 µM

Item: "COc1nc(N2CCOCC2)cc(-n2ncc3cc(C)c(C4CCNCC4)cc32)n1.Cl" | IC50: 0.0501 µM
